Each entry below carries its reported Activity (sub-Gl).
system: cells; test: Sub-G1 apoptosis test (DNA fragmentation, fluorescent DNA intercalator), Example 60; assay type: cell-based; details: apoptosis, DNA fragmentation by fluorescence

{"compound": "CC1=C(CNC(=O)C(N)CO)C(=O)c2ccccc2C1=O.Cl (stereo not shown)", "Activity (sub-Gl) [µM]": 11.8}
{"compound": "CC1=C(CNC(=O)C(N)C(C)C)C(=O)c2ccccc2C1=O.Cl (stereo not shown)", "Activity (sub-Gl) [µM]": 12}
{"compound": "CC1=C(CNC(=O)C(N)C(C)O)C(=O)c2ccccc2C1=O (stereo not shown)", "Activity (sub-Gl) [µM]": 12.2}
{"compound": "CC1=C(CNC(=O)C(C)N)C(=O)c2ccccc2C1=O.Cl (stereo not shown)", "Activity (sub-Gl) [µM]": 13.3}
